Reference source for all entries: patent US20220125051A1

# Tested on: Lolium perenne (LOLPE)
# Experimental protocol: Post-emergence efficacy, Method A
# Assay type: in vivo
# Test conditions: Lolium perenne, post-emergence, 312 h, Application rate 500 g/Ha; evaluated after 13 days; 100=total damage to plant, 0=no damage to plant; read-out: Control of weed species after post-emergence application, LOLPE
Provide the recorded pest or weed control at 500 g/ha for the entries that follow.
Write the number in % without appending the unit.

In: Consider the compound COc1ccnc(-c2cc[n+](CCS(=O)(=O)[O-])nc2)n1 [Compound A13] . State its measured pest or weed control at 500 g/ha.
Out: 50

In: Consider the compound O=C(O)CC[n+]1ccc(-c2ncccn2)cn1 [Compound A125, 2,2,2-trifluoroacetate] . State its measured pest or weed control at 500 g/ha.
Out: 90

In: Consider the compound O=S(=O)([O-])CCC[n+]1ccc(-c2cnc(F)cn2)cn1 [Compound A98] . State its measured pest or weed control at 500 g/ha.
Out: 0

In: Consider the compound O=S(=O)([O-])CC[n+]1ccc(-c2ccnc(C(F)(F)F)n2)cn1 [Compound A108] . State its measured pest or weed control at 500 g/ha.
Out: 40

In: Consider the compound Cc1nccc(-c2cc[n+](CCC(=O)O)nc2)n1 [Compound A55] . State its measured pest or weed control at 500 g/ha.
Out: 60

In: Consider the compound Cc1cnc(-c2cc[n+](CCC(=O)O)nc2)c(Cl)c1 [Compound A137] . State its measured pest or weed control at 500 g/ha.
Out: 20

In: Consider the compound COC(=O)C[n+]1ccc(-c2ncccn2)cn1 [Compound A2] . State its measured pest or weed control at 500 g/ha.
Out: 0

In: Consider the compound CS(=O)(=O)c1cnc(-c2cc[n+](CCS(=O)(=O)[O-])nc2)nc1 [Compound A15] . State its measured pest or weed control at 500 g/ha.
Out: 10

In: Consider the compound Cc1cccnc1-c1cc[n+](CCC(=O)[O-])nc1 [Compound A65] . State its measured pest or weed control at 500 g/ha.
Out: 10

In: Consider the compound Cc1cc(Cl)cnc1-c1cc[n+](CCCS(=O)(=O)[O-])nc1 [Compound A102] . State its measured pest or weed control at 500 g/ha.
Out: 10

In: Consider the compound Cc1cnc(-c2cc[n+](CCC(=O)[O-])nc2)nc1C [Compound A96] . State its measured pest or weed control at 500 g/ha.
Out: 60

In: Consider the compound COC(=O)c1cnc(-c2cc[n+](CCS(=O)(=O)[O-])nc2)nc1 [Compound A33] . State its measured pest or weed control at 500 g/ha.
Out: 50

In: Consider the compound CN(C)c1cnc(-c2cc[n+](CCC(=O)[O-])nc2)nc1 [Compound A42] . State its measured pest or weed control at 500 g/ha.
Out: 0

In: Consider the compound O=S(=O)([O-])CCC[n+]1ccc(-c2cnc(Cl)cn2)cn1 [Compound A79] . State its measured pest or weed control at 500 g/ha.
Out: 0

In: Consider the compound O=C(O)CC[n+]1ccc(-c2ncc(F)cc2F)cn1 [Compound A144] . State its measured pest or weed control at 500 g/ha.
Out: 10

In: Consider the compound Cc1nccc(-c2cc[n+](CCS(=O)(=O)[O-])nc2)n1 [Compound A31] . State its measured pest or weed control at 500 g/ha.
Out: 60

In: Consider the compound CCOC(=O)CC[n+]1ccc(-c2ncccn2)cn1 [Compound A82] . State its measured pest or weed control at 500 g/ha.
Out: 0

In: Consider the compound O=C([O-])CC[n+]1ccc(-c2ncc(Cl)cn2)cn1 [Compound A43] . State its measured pest or weed control at 500 g/ha.
Out: 20

In: Consider the compound Cc1cncc(-c2cc[n+](CCS(=O)(=O)[O-])nc2)n1 [Compound A83] . State its measured pest or weed control at 500 g/ha.
Out: 70
